Tested on: CHO
MEASUREMENT_NOTES: Cytotoxicity against CHO cells by MTT assay
Type: cell-based
CONDITION_SUMMARY: Cricetulus griseus
RESULT_TYPE: pIC50
One number for each entry, as −log10 of the molar value.

Request: Let me know recorded pIC50 for `CC[C@H]1CN2CCc3cc(OC)c(OC)cc3[C@@H]2C[C@@H]1C[C@H]1NCCc2cc(OC)c(OC)cc21` , thanks.
Response: 7.39

----------
MEASUREMENT_NOTES: Inhibition of NP-40-induced beta-haematin formation after 5 to 6 hrs hrs by UV-vis spectroscopic analysis
Assay type: physicochemical
Please provide measured IC50 for the entries that follow.
Give bare numbers, in µM.

>  <COMPOUND>
CCN(CC)Cc1cc(Nc2ccnc3cc(Cl)ccc23)ccc1O

>  <RESULT_UNIT>
µM

>  <ASSAY_VALUE>
6.8

$$$$

Now for another entry.
Request: Let me know recorded IC50 for CCN(CC)CCCC(C)Nc1ccnc2cc(Cl)ccc12 (configuration not stated) [CHLOROQUINE] , thanks.
Response: 18.2
